Attribution: the supplement of paper PMC10065799

Molecular target: Grb2 SH2 (UniProt P62993)
Sequence (P62993 whole entry, looked up, the tested form may be a part): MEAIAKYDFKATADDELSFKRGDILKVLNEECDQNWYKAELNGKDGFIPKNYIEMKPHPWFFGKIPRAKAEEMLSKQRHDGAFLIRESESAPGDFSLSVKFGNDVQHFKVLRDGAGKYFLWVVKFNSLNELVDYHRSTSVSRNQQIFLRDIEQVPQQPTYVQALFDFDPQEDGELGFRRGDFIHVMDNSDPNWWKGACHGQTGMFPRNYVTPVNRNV
Assay: SH2 binding enrichment of the phosphorylated peptide, bacterial display (enrichment ratio); higher = better substrate or ligand; peptides without Tyr show the background;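 also: peptide library displayed on the E. coli surface as eCPX fusions, selected cells deep-sequenced, score is each peptide's frequency after selection divided by its frequency in the input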
Mark y for reported SH2 binding enrichment of 0.9 or greater; mark n for anything smaller.

>  <entry sequence>
CEHRGHLFLAI [TEK_Y897_Y897H_YF]

>  <class label>
y

$$$$
>  <entry sequence>
GHRPVYSEDEQ [CHST6_Y362_Y358H]

>  <class label>
y

$$$$
>  <entry sequence>
KHCEDYVFSYN [DSC1_Y846_C848F]

>  <class label>
n

$$$$
>  <entry sequence>
EAAFVYVISSA [WNT4_Y113_A114V]

>  <class label>
n

$$$$
>  <entry sequence>
GISDEYHMIRH [GCDH_Y398_V400M]

>  <class label>
y

$$$$
>  <entry sequence>
KPLMPYMRFSR [SMARCE1_Y73_YF]

>  <class label>
n

$$$$
>  <entry sequence>
EGGFAYVPLKD [PRIM2_Y208_D204G]

>  <class label>
n

$$$$
>  <entry sequence>
FDNPVYQKTTE [LDLR_Y828]

>  <class label>
y

$$$$
>  <entry sequence>
NHYKICNLCAE [PTEN_Y68_Y68C]

>  <class label>
y

$$$$
>  <entry sequence>
PFSNSYENSLI [EPOR_Y489_P488S_YF]

>  <class label>
y

$$$$
>  <entry sequence>
LVMFTYAIFGM [SCN1A_Y1684_I1683T]

>  <class label>
y

$$$$
>  <entry sequence>
YQLPYYNMVPS [BMPR1A_Y458]

>  <class label>
y

$$$$
>  <entry sequence>
TQPSPYAVYRF [RPGRIP1_Y823]

>  <class label>
n

$$$$
>  <entry sequence>
GVRLFYRVMES [RB1_Y454_YF]

>  <class label>
n

$$$$
>  <entry sequence>
SSSAIYDNPNL [DCP1B_Y191]

>  <class label>
n

$$$$
>  <entry sequence>
PDDPNYSLVDD [PSTPIP2_Y323]

>  <class label>
y

$$$$
>  <entry sequence>
QCTSHYPEHVC [SART3_Y541_D540H]

>  <class label>
y

$$$$
>  <entry sequence>
ACLSLYGGFVE [MVD_Y164_R161L]

>  <class label>
n

$$$$
>  <entry sequence>
EERKTYVNTTL [TEK_Y1102]

>  <class label>
y

$$$$
>  <entry sequence>
VFFDLYGGEKF [PTPN11_Y66_D61V_YF]

>  <class label>
y

$$$$
>  <entry sequence>
LDFPEYNGVDR [CASQ1_Y43_D44N]

>  <class label>
n

$$$$
>  <entry sequence>
TLRKTYGEMAD [ALB_Y108_E106K]

>  <class label>
n

$$$$
>  <entry sequence>
NGRQCYSCRGN [PLAUR_Y217_K220R]

>  <class label>
y

$$$$
>  <entry sequence>
PLDVEYFTLQI [TP53_Y327_G325V]

>  <class label>
n

$$$$
>  <entry sequence>
HGDDDYDDPEL [CLNK_Y69_S65G]

>  <class label>
y

$$$$
>  <entry sequence>
VECQVYAEDPF [PCCA_Y401_R399Q_YF]

>  <class label>
n

$$$$
>  <entry sequence>
PVQAAYQNVVA [HBB_Y131_K133N]

>  <class label>
y

$$$$
>  <entry sequence>
LLREWYLQDPY [SIX3_Y225]

>  <class label>
y

$$$$
>  <entry sequence>
NRLTDYYELLL [BBS10_Y536_P539L]

>  <class label>
y

$$$$
>  <entry sequence>
LNFNEYFRDLN [HPRT1_Y198_D194N_YF]

>  <class label>
y

$$$$
>  <entry sequence>
RKKLFYKADGE [SERPINC1_Y272_E269K]

>  <class label>
n

$$$$
>  <entry sequence>
ADGLEYPRTGL [MMUT_Y287_S288P]

>  <class label>
n

$$$$
>  <entry sequence>
LIDGYYRLTAD [JAK2_Y373]

>  <class label>
n

$$$$
>  <entry sequence>
ESSKAYERDLS [TTC37_Y1074_A1077D]

>  <class label>
n

$$$$
>  <entry sequence>
HRFAAYFQQGD [GPI_Y351]

>  <class label>
y

$$$$
>  <entry sequence>
QYRFIYMAVQH [PTPN11_Y515]

>  <class label>
y

$$$$
>  <entry sequence>
QGFDTYFGFLL [ARSB_Y165_R160Q_YF]

>  <class label>
n

$$$$
>  <entry sequence>
MSSHHYDYKKY [ZNF445_Y428]

>  <class label>
n

$$$$
>  <entry sequence>
KPGLVYNKVNP [SPRED3_Y72]

>  <class label>
y

$$$$
>  <entry sequence>
QNTGYYYDLYG [PTPN11_Y62_D61Y]

>  <class label>
y

$$$$
>  <entry sequence>
DSRRDYVSQFE [APOA1_Y53_G50R]

>  <class label>
n

$$$$
>  <entry sequence>
AEMKRYSESSS [RAI14_Y869_A870S]

>  <class label>
n

$$$$
>  <entry sequence>
ARRHPYFYAPE [ALB_Y172]

>  <class label>
n

$$$$
>  <entry sequence>
LNEAVYTKMMT [G6PD_Y401_P396L]

>  <class label>
n

$$$$
>  <entry sequence>
LKFAIYFEARE [LAMA2_Y1258_YF]

>  <class label>
y

$$$$
>  <entry sequence>
RNNIEYVRDIG [MUSK_Y577]

>  <class label>
y

$$$$
>  <entry sequence>
QQTYTYDSGIH [JUP_Y22]

>  <class label>
y

$$$$
>  <entry sequence>
RCKNHYAAFSV [C1QTNF1_Y145_S143N]

>  <class label>
y

$$$$
>  <entry sequence>
ENELTYFCFKK [CD59_Y86_C89Y_YF]

>  <class label>
n

$$$$
>  <entry sequence>
SENFTYIWWLN [PSG4_Y271_K267E_YF]

>  <class label>
n

$$$$
